# credit: patent US20040209914A1

target_system: Recombinant human MMP-13 (Homo sapiens)
Construct: made in house; host or cells: baculovirus / insect cells
run_description: biochemical
condition_context: fluorogenic MCA-peptide substrate, pH 7.5, room temperature; read-out: MMP-13 IC50

{"item_smiles": "CCN1CCC(C(=O)NO)(S(=O)(=O)c2ccc(N3CCC(C(=O)c4ccc(N(C)C)cc4)CC3)cc2)CC1", "target_system": "Recombinant human MMP-13 (Homo sapiens)", "IC50": "2.1 nM"}
{"item_smiles": "O=C(NO)C1(S(=O)(=O)c2ccc(N3CCC(SCc4ccc(OC(F)(F)F)cc4)CC3)cc2)CCNCC1", "target_system": "Recombinant human MMP-13 (Homo sapiens)", "IC50": "4 nM"}
{"item_smiles": "COc1ccc(C(=O)C2CCN(c3ccc(S(=O)(=O)C4(C(=O)NO)CCN(S(C)(=O)=O)CC4)cc3)CC2)cc1", "target_system": "Recombinant human MMP-13 (Homo sapiens)", "IC50": "1.8 nM"}
{"item_smiles": "CCCCOc1ccc(C(=O)C2CCN(c3ccc(S(=O)(=O)C4(C(=O)NO)CCOCC4)cc3)CC2)cc1", "target_system": "Recombinant human MMP-13 (Homo sapiens)", "IC50": "20 nM"}

====

target_system: Recombinant human MMP-13 (Homo sapiens, UniProt P45452)
Construct: made in house; host or cells: baculovirus / insect cells
run_description: biochemical
condition_context: fluorogenic MCA-peptide substrate, pH 7.5, room temperature; read-out: MMP-13 IC50
pIC50: −log10 of the molar value.

{"item_smiles": "COc1ccc(C2CCN(c3ccc(S(=O)(=O)C4(C(=O)NO)CCN(CC5CC5)CC4)cc3)CC2)cc1", "comparison_operator": "=", "pIC50": 8.92}
{"item_smiles": "COCCN1CCN(C(=O)C2CCN(c3ccc(S(=O)(=O)C4(C(=O)NO)CCOCC4)cc3)CC2)CC1", "comparison_operator": "<", "pIC50": 5.00}
{"item_smiles": "COCCN1CCC(C(=O)NO)(S(=O)(=O)c2ccc(N3CCC(C(=O)c4ccc(COC)s4)CC3)cc2)CC1", "comparison_operator": "=", "pIC50": 9.40}

====

target_system: Recombinant human MMP-13 (Homo sapiens)
Construct: made in house; host or cells: baculovirus / insect cells
run_description: biochemical
condition_context: fluorogenic MCA-peptide substrate, pH 7.5, room temperature; read-out: MMP-13 IC50
pIC50: −log10 of the molar value.
Param threshold (8) applies to pIC50; output condition met when value >= threshold, condition not met when value < threshold.

{"compound": "COCCc1sc(CC(=O)C2CCN(c3ccc(S(=O)(=O)C4(C(=O)NO)CCOCC4)cc3)CC2)nc1C", "target_system": "Recombinant human MMP-13 (Homo sapiens)", "class_label": "condition met"}
{"compound": "CS(=O)(=O)N1CCC(C(=O)NO)(S(=O)(=O)c2ccc(N3CCC(C(=O)c4ccc5ccccc5c4)CC3)cc2)CC1", "target_system": "Recombinant human MMP-13 (Homo sapiens)", "class_label": "condition not met"}
{"compound": "CCC(C)Cc1ccc(C(=O)C2CCN(c3ccc(S(=O)(=O)C4(C(=O)NO)CCN(C5CC5)CC4)cc3)CC2)cc1 (stereo not shown)", "target_system": "Recombinant human MMP-13 (Homo sapiens)", "class_label": "condition met"}
{"compound": "COCCN1CCC(C(=O)NO)(S(=O)(=O)c2ccc(N3CCC(C(=O)c4ccc(CN(C)C)s4)CC3)cc2)CC1", "target_system": "Recombinant human MMP-13 (Homo sapiens)", "class_label": "condition met"}
{"compound": "O=C(CN1CCN(C(=O)C2CCN(c3ccc(S(=O)(=O)C4(C(=O)NO)CCOCC4)cc3)CC2)CC1)N1CCCC1", "target_system": "Recombinant human MMP-13 (Homo sapiens)", "class_label": "condition not met"}

====

Measured IC50 values are reported for all entries that follow.
target_system: Recombinant human MMP-2 (Homo sapiens, UniProt P08253)
Construct: made in house
Sequence (P08253 110-660): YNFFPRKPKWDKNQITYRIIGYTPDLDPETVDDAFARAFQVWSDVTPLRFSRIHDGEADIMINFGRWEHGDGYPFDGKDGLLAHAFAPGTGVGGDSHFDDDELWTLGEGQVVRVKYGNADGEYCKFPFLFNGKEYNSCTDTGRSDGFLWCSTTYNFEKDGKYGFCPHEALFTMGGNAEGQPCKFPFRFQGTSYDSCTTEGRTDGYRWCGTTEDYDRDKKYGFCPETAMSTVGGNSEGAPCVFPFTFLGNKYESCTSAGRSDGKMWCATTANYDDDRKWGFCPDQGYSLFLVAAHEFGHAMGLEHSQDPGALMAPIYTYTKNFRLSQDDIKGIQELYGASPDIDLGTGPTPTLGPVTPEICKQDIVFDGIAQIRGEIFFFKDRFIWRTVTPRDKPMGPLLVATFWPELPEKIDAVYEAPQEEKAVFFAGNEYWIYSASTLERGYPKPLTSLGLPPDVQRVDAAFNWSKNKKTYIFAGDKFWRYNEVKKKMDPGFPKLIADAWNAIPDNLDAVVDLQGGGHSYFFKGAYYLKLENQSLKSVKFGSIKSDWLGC
run_description: biochemical
condition_context: fluorogenic MCA-peptide substrate, pH 7.5, room temperature; read-out: MMP-2 IC50

{"molecule": "Cc1cc(C(=O)C2CCN(c3ccc(S(=O)(=O)C4(C(=O)NO)CCN(S(C)(=O)=O)CC4)cc3)CC2)ccc1Cl", "IC50, nM": 258}
{"molecule": "O=C(c1ccc(CC2CCCCC2)cc1)C1CCN(c2ccc(S(=O)(=O)C3(C(=O)NO)CCOCC3)cc2)CC1", "IC50, nM": 2290}
{"molecule": "COc1ccccc1N1CCN(C(=O)C2CCN(c3ccc(S(=O)(=O)C4(C(=O)NO)CCOCC4)cc3)CC2)CC1", "IC50, nM": 4500}
{"molecule": "CCc1ccc(C(=O)C2CCN(c3ccc(S(=O)(=O)C4(C(=O)NO)CCN(CCOC)CC4)cc3)CC2)cc1", "IC50, nM": 110}
{"molecule": "C=CCN1CCC(C(=O)NO)(S(=O)(=O)c2ccc(N3CCC(C(=O)c4ccc(CCC)cc4)CC3)cc2)CC1", "IC50, nM": 32.2}
{"molecule": "C#CCN1CCC(C(=O)NO)(S(=O)(=O)c2ccc(N3CCC(C(=O)c4ccc(OC)cc4)CC3)cc2)CC1", "IC50, nM": 128}
{"molecule": "COCCN1CCC(C(=O)NO)(S(=O)(=O)c2ccc(N3CCC(C(=O)c4ccc(CO)cc4)CC3)cc2)CC1", "IC50, nM": 62.1}
{"molecule": "CCN1CCC(C(=O)NO)(S(=O)(=O)c2ccc(N3CCC(C(=O)c4ccc(CC5CCC5)cc4)CC3)cc2)CC1 [Example 195]", "IC50, nM": 463}
{"molecule": "CCN1CCC(C(=O)NO)(S(=O)(=O)c2ccc(N3CCC(C(=O)c4ccc(C)cc4)CC3)cc2)CC1", "IC50, nM": 19.6}
{"molecule": "CCN1CCC(C(=O)NO)(S(=O)(=O)c2ccc(N3CCC(C(=O)c4ccc(CCC5CCCC5)cc4)CC3)cc2)CC1", "IC50, nM": 1910}
{"molecule": "Cn1ccc2cc(C(=O)C3CCN(c4ccc(S(=O)(=O)C5(C(=O)NO)CCOCC5)cc4)CC3)ccc21", "IC50, nM": 10000}
{"molecule": "C=CCN1CCC(C(=O)NO)(S(=O)(=O)c2ccc(N3CCC(C(=O)c4ccc(C)c(C)c4)CC3)cc2)CC1", "IC50, nM": 218}
{"molecule": "C=CCN1CCN(C(=O)C2CCN(c3ccc(S(=O)(=O)C4(C(=O)NO)CCOCC4)cc3)CC2)CC1", "IC50, nM": 3700}
{"molecule": "COCCN1CCC(C(=O)NO)(S(=O)(=O)c2ccc(N3CCC(C(=O)c4ccc(CCCC(C)C)cc4)CC3)cc2)CC1", "IC50, nM": 1020}

====

target_system: Recombinant human MMP-2 (Homo sapiens)
Construct: made in house
run_description: biochemical
condition_context: fluorogenic MCA-peptide substrate, pH 7.5, room temperature; read-out: MMP-2 IC50
pIC50: −log10 of the molar value.
Mark T for reported pIC50 of 7 or greater; mark F for anything smaller.

{"molecule": "COc1ccc(C(=O)C2CCN(c3ccc(S(=O)(=O)C4(C(=O)NO)CCN(S(C)(=O)=O)CC4)cc3)CC2)cc1", "class_label": "F"}
{"molecule": "O=C(c1ccc2ccccc2c1)C1CCN(c2ccc(S(=O)(=O)C3(C(=O)NO)CCN(CC4CC4)CC3)cc2)CC1", "class_label": "F"}
{"molecule": "COc1ccc(C(=O)C2CCN(c3ccc(S(=O)(=O)C4(C(=O)NO)CCOCC4)cc3)CC2)cc1C", "class_label": "F"}
{"molecule": "O=C(NO)C1(S(=O)(=O)c2ccc(N3CCC(c4ccc(Cl)cc4)CC3)cc2)CCN(C2CC2)CC1 [Example 270]", "class_label": "T"}
{"molecule": "CCC(CC)Cc1ccc(C(=O)C2CCN(c3ccc(S(=O)(=O)C4(C(=O)NO)CCN(CC)CC4)cc3)CC2)cc1", "class_label": "F"}
